Experiment: Cytotoxicity against human epidermoid carcinoma KB cells
Format: functional, cell-based
endpoint_name: IC50

C=C1[C@@H](O)CC[C@@]2(C)[C@@H](OC(C)=O)[C@H](OC(C)=O)C3=C(C)C(=O)C[C@@H]([C@@H](O)[C@H]12)C3(C)C ... > 10 µg/mL
C=C1[C@@H](OC(=O)/C=C/c2ccccc2)C[C@H](OC(C)=O)[C@]2(C)[C@@H]1C[C@]1(C(C)(C)O)C[C@H](OC(C)=O)C(C)=C1[C@@H](OC(C)=O)[C@@H]2OC(C)=O [TAXUSPINE J] ... > 10 µg/mL
C=C1[C@@H](O)C[C@H](OC(C)=O)[C@@]2(C)[C@@H](OC(C)=O)[C@H](OC(C)=O)C3=C(C)[C@@H](OC(C)=O)C[C@@H]([C@@H](OC(C)=O)[C@H]12)C3(C)C [DECINNAMOYLTAXININE J] ... > 10 µg/mL

State the recorded IC50 for every item in the following list.
1. C=C1[C@@H](OC(=O)/C=C/c2ccccc2)C[C@H](OC(C)=O)[C@@]2(C)[C@@H](OC(C)=O)[C@H](OC(C)=O)C3=C(C)C(=O)C[C@@H]([C@@H](OC(C)=O)[C@H]12)C3(C)C
2. CC(=O)O[C@H]1[C@@H]2[C@H](CO)[C@@H](OC(C)=O)C[C@H](OC(C)=O)[C@@]2(C)[C@@H](OC(C)=O)[C@H](OC(C)=O)C2=C(C)[C@@H](OC(C)=O)C[C@@H]1C2(C)C

["> 10 µg/mL", "4.5 µg/mL"]

Need IC50 for each of these molecules.
1. CC(=O)O[C@H]1C[C@@H]2OC[C@@]2(OC(C)=O)[C@H]2[C@H](OC(C)=O)[C@]3(O)C[C@H](OC(=O)CC(c4ccccc4)N(C)C)C(C)=C([C@@H](OC(=O)c4ccccc4)[C@H](OC(C)=O)[C@]12C)C3(C)C (some centres undefined)
2. CC(=O)O[C@@H]1C2=C(C)[C@@H](O)C[C@@]2(C(C)(C)O)[C@@H](OC(C)=O)[C@@H]2[C@]3(OC(C)=O)CO[C@@H]3C[C@H](OC(C)=O)[C@@]2(C)[C@H]1OC(C)=O
3. CC(=O)O[C@H]1C[C@H]2OC[C@@]2(OC(C)=O)[C@H]2[C@H](OC(C)=O)[C@]3(C(C)(C)O)C[C@H](OC(=O)/C=C/c4ccccc4)C(C)=C3[C@@H](OC(=O)c3ccccc3)[C@H](OC(C)=O)[C@]12C [TAXCHININ B]
4. C=C1[C@@H](OC(=O)/C=C/c2ccccc2)C[C@H](OC(C)=O)[C@@]2(CO)[C@@H](OC(C)=O)[C@H](OC(C)=O)[C@]3(O)[C@@]4(C)CO[C@]3(C)C(=O)C[C@H]4[C@@H](OC(C)=O)[C@H]12 [TAXUSPINE S]
5. CC(=O)O[C@@]12CO[C@@H]1C[C@@H](O)[C@@]1(C)C(=O)[C@H](O)C3=C(C)[C@@H](OC(=O)[C@H](O)C(NC(=O)c4ccccc4)c4ccccc4)C[C@@](O)([C@@H](OC(=O)c4ccccc4)[C@H]21)C3(C)C (some centres undefined)
6. CC(=O)O[C@H]1C(=O)[C@@]2(C)[C@H]([C@H](OC(=O)c3ccccc3)[C@]3(O)C[C@H](OC(=O)[C@H](O)C(NC(=O)C4CCC4)c4ccccc4)C(C)=C1C3(C)C)[C@]1(OC(C)=O)CO[C@@H]1C[C@@H]2O (some centres undefined)
7. C=C1[C@@H](OC(=O)/C=C/c2ccccc2)C[C@H](OC(C)=O)[C@@]2(C)[C@@H](OC(C)=O)[C@H](OC(C)=O)[C@@]3(O)C(C)=C(OC(C)=O)C[C@@H]([C@@H](OC(C)=O)[C@H]12)C3(C)C

1: > 10 µg/mL; 2: > 10 µg/mL; 3: > 10 µg/mL; 4: 0.26 µg/mL; 5: 0.013 µg/mL; 6: 0.086 µg/mL; 7: 1.8 µg/mL

// for each molecule in input: emit IC50
1. C=C1[C@@H](OC(=O)/C=C/c2ccccc2)CC[C@@]2(C)[C@@H](OC(C)=O)[C@H](OC(C)=O)[C@@]34[C@H](C)C(=O)C[C@@H]([C@@H](OC(C)=O)C132)C4(C)C (some centres undefined)
2. C=C1[C@@H](O)CC[C@@]2(C)[C@@H](OC(C)=O)[C@H](OC(C)=O)C3=C(C)C(=O)C[C@@](O)([C@@H](OC(C)=O)[C@H]12)C3(C)C

["> 10 µg/mL", "0.6 µg/mL"]

Your task in this section: give IC50 for each listed record.
1. C=C1[C@@H](OC(=O)/C=C/c2ccccc2)C[C@H](OC(C)=O)[C@]2(C)[C@@H]1C[C@]1(C(C)(C)O)C[C@H](OC(C)=O)C(C)=C1[C@@H](O)[C@@H]2OC(C)=O
2. C=C1[C@@H](OC(=O)/C=C/c2ccccc2)C[C@H](OC(C)=O)[C@@]2(COC(=O)c3ccccc3)[C@@H](OC(C)=O)[C@H](OC(C)=O)[C@]3(O)[C@@]4(C)CO[C@]3(C)C(=O)C[C@H]4[C@@H](OC(C)=O)[C@H]12
3. C=C1[C@@H](O)C[C@H](O)[C@@]2(C)[C@@H](OC(C)=O)[C@H](OC(C)=O)C3=C(C)C(=O)C[C@@]3(C(C)(C)O)[C@@H](OC(C)=O)[C@H]12
4. C/C=C(\C)C(=O)O[C@@H]1C2=C(C)[C@@H](O)C[C@@]2(C(C)(C)O)[C@@H](OC(C)=O)[C@@H]2[C@]3(OC(C)=O)CO[C@@H]3C[C@H](OC(C)=O)[C@@]2(C)[C@H]1OC(C)=O
5. C=C1[C@@H](O)C[C@H](OC(C)=O)[C@@]2(C)[C@@H](OC(C)=O)[C@H](OC(C)=O)[C@]3(O)[C@@]4(C)CO[C@]3(C)C(=O)C[C@H]4[C@@H](OC(C)=O)[C@H]12

5.8 µg/mL
> 10 µg/mL
> 10 µg/mL
0.3 µg/mL
> 10 µg/mL

Data credit: ChEMBL document CHEMBL1130376
